# Test system: ragweed
# experimentNotes: Test E preemergence herbicide test
# Format: in vivo, Ambrosia elatior
# Set-up: key: 0 = no effect, 100 = complete control
# conditionContext: 31 g ai/ha
Documented Plant response rating, Ragweed across a set of compounds

Here's what some known entries look like.
O=C1NC[C@H](c2cccc(C(F)(F)F)c2)[C@H]1C(=O)Nc1ccccc1F [Compound 204]
0
O=C1NCC(c2ccc(F)c(F)c2)C1C(=O)Nc1cccc(F)c1F (stereo not drawn) [Compound 17]
0
O=C1NCC(c2ccc(C(F)(F)F)cc2)C1C(=O)Nc1cccc(F)c1F (racemic) [Compound 202]
20
O=C1NCC(c2ccc(C(F)(F)F)cc2)C1C(=O)Nc1cccc(F)c1F (stereo not drawn) [Compound 80]
0
O=C1NCC(c2ccc(OC(F)F)cc2)C1C(=O)Nc1cccc(F)c1F (racemic) [Compound 350]
0

Proceed to the following item.
Incoming: What value of measured Plant response rating, Ragweed is listed for O=C1NC[C@H](c2cccc(C(F)(F)F)c2)[C@H]1C(=O)Nc1cccc(F)c1F [Compound 206] ?
Outgoing: 0

====

# Test system: ragweed
# experimentNotes: Test A pre-/postemergence herbicide test
# Assay type: in vivo, Ambrosia elatior
# conditionContext: 125 g ai/ha; visual rating, 0 to 100 scale, 0 no effect, 100 complete control; approximately 10 days; preemergence
# Excerpt: […]
quantityMeasured: Plant response rating, Ragweed

Here's what some known entries look like.
O=C1NCC(c2cccc(OC(F)(F)C(F)F)c2)C1C(=O)Nc1cccc(F)c1F (racemic)
70
O=C1NCC(c2ccc(F)cc2)C1C(=O)Nc1ccc(F)c(F)c1F (racemic)
60
O=C1NCC(c2cccc(S(F)(F)(F)(F)F)c2)C1C(=O)Nc1ccccc1C(F)(F)F (centres unmarked)
0
O=C1NCC(c2ccc(F)cc2)C1C(=O)Nc1ccccc1F (centres unmarked)
0
CCCN1CC(c2ccc(C(F)(F)F)cc2)C(C(=O)Nc2cccc(F)c2F)C1=O (centres unmarked)
0

Incoming: # value lookup — system ragweed, readout Plant response rating, Ragweed, item Cc1ccc(C2CNC(=O)C2C(=O)Nc2cccc(F)c2F)cc1F (racemic)
Outgoing: 0

Incoming: # value lookup — system ragweed, readout Plant response rating, Ragweed, item Cc1ccc(C2CNC(=O)C2C(=O)Nc2ccc(F)cc2F)cc1 (racemic)
Outgoing: 0

Incoming: # value lookup — system ragweed, readout Plant response rating, Ragweed, item Cc1cccc(NC(=O)C2C(=O)NCC2c2cccc(C(F)(F)F)c2)c1F (racemic)
Outgoing: 0

====

# Test system: galium
# experimentNotes: Test A postemergence herbicide test
# Type: in vivo, Galium aparine
# conditionContext: 125 g ai/ha, visual rating on 0 to 100 scale (0 no effect, 100 complete control), approx. 10 days
# Text: At the same time, plants selected from these crop and weed species and also blackgrass (Alopecurus myosuroides), and galium (catchweed bedstraw, Galium aparine) were planted in pots containing the same blend of loam soil and sand and treated with postemergence applications of test chemicals formulated in the same manner. Plants ranged in height from 2 to 10 cm and were in the one- to two-leaf stage for the postemergence treatment. […]
Documented Plant response rating, Galium across a set of compounds
// no unit string in output, number only

Here's what some known entries look like.
O=C1NCC(c2ccc(OC(F)F)cc2)C1C(=O)Nc1cccc(F)c1F (racemic)
60
O=C1NCC(c2ccc(Cl)s2)C1C(=O)Nc1ccccc1F (stereo not shown)
10
O=C1NCC(c2cccc(-n3ccc(C(F)(F)F)n3)c2)C1C(=O)Nc1cccc(F)c1F (stereo not shown)
0
O=C1NCC(c2ccc(SC(F)(F)F)cc2)C1C(=O)Nc1ccccc1F (stereo not shown)
0

Incoming: # value lookup — system galium, readout Plant response rating, Galium, item CC(C)c1cccc(C2CNC(=O)C2C(=O)Nc2cccc(F)c2F)c1 (stereo not shown)
Outgoing: 30

Incoming: # value lookup — system galium, readout Plant response rating, Galium, item O=C1NCC(c2cccc(C(F)(F)F)c2)C1C(=O)Nc1cc(F)ccc1F (stereo not shown)
Outgoing: 0

Incoming: # value lookup — system galium, readout Plant response rating, Galium, item O=C1NCC(c2cccc(I)c2)C1C(=O)Nc1cccc(F)c1F (stereo not shown)
Outgoing: 40

Incoming: # value lookup — system galium, readout Plant response rating, Galium, item O=C1NCC(c2ccc(Br)c(Br)c2)C1C(=O)Nc1ccc(F)cc1F (stereo not shown)
Outgoing: 0

Incoming: # value lookup — system galium, readout Plant response rating, Galium, item O=C1NCC(c2cccc(-n3cccn3)c2)C1C(=O)Nc1ccccc1C(F)(F)F (stereo not shown)
Outgoing: 0

Incoming: # value lookup — system galium, readout Plant response rating, Galium, item CN1CC(c2ccc(C(F)(F)F)cc2)C(C(=O)Nc2cccc(F)c2F)C1=O (stereo not shown)
Outgoing: 60

====

Documented Plant response rating, Rice across a set of compounds
# Test system: rice
# experimentNotes: Test B flooded paddy test
# Type: in vivo, Oryza sativa
# conditionContext: 500 g ai/ha, Flood; scale of 0 to 100 where 0 is no effect and 100 is complete control
// no unit string in output, number only

Here's what some known entries look like.
CC(C)c1cccc(C2CNC(=O)C2C(=O)Nc2cccc(F)c2F)c1 (centres unmarked) [Compound 319]
0
CN1CC(c2ccc(F)c(F)c2)C(C(=O)Nc2cccc(F)c2F)C1=O (centres unmarked) [Compound 303]
30
Cc1ccc(C2CNC(=O)C2C(=O)Nc2cccc(F)c2F)cc1F (racemic) [Compound 146]
0
O=C1NCC(c2ccc(Cl)cc2)C1C(=O)Nc1cccc(F)c1F (centres unmarked) [Compound 218]
0

Proceed to the following item.
Incoming: # value lookup — system rice, readout Plant response rating, Rice, item Cc1ccc(C2CNC(=O)C2C(=O)Nc2ccc(F)c(F)c2F)cc1F (racemic) [Compound 147]
Outgoing: 0

====

# System: galium
# experimentNotes: Test A postemergence herbicide test
# Type: in vivo, Galium aparine
# conditionContext: 500 g ai/ha
# Excerpt: At the same time, plants selected from these crop and weed species and also blackgrass (Alopecurus myosuroides), and galium (catchweed bedstraw, Galium aparine) were planted in pots containing the same blend of loam soil and sand and treated with postemergence applications of test chemicals formulated in the same manner. Plants ranged in height from 2 to 10 cm and were in the one- to two-leaf stage for the postemergence treatment. […]
quantityMeasured: Galium plant response rating (0 to 100 scale, 0 is no effect, 100 is complete control)
// no unit string in output, number only

Here's what some known entries look like.
Cc1ccc(C2CNC(=O)C2C(=O)Nc2ccc(F)c(F)c2F)cc1F (racemic)
60
O=C1NCC(c2ccc(F)cc2)C1C(=O)Nc1ccc(F)c(F)c1F (racemic)
60
Cc1cccc(NC(=O)C2C(=O)NCC2c2cccc(C(F)(F)F)c2)c1F (racemic)
20
CCc1cccc(C2CNC(=O)C2C(=O)Nc2ccccc2F)c1 (racemic)
50
O=C1NCC(c2cccc(C(F)(F)F)c2)C1C(=O)Nc1nnc(C(F)(F)F)s1 (racemic)
0
O=C1NCC(c2ccc(C(F)(F)F)cc2)C1C(=O)Nc1ccccc1F (centres unmarked)
50
O=C1NCC(c2ccc(C(F)(F)F)cc2)C1C(=O)Nc1cccc(F)c1F (racemic)
60

Proceed to the following item.
Incoming: What value of measured Galium plant response rating (0 to 100 scale, 0 is no effect, 100 is complete control) is listed for COc1cc(C2CNC(=O)C2C(=O)Nc2ccc(F)cc2F)ccc1F (racemic) ?
Outgoing: 0

====

Documented Plant response rating, Barnyardgrass across a set of compounds
# Test system: barnyardgrass
# experimentNotes: Test C flooded paddy test
# Type: in vivo, Echinochloa crus-galli
# conditionContext: Flood, 31 g ai/ha; scale of 0 to 100 where 0 is no effect and 100 is complete control; 13 to 15 days
// no unit string in output, number only

Here's what some known entries look like.
O=C1NCC(c2ccccc2)C1(Br)C(=O)Nc1ccccc1F (stereo not shown)
0
O=C1NCC(Br)(c2ccccc2)C1C(=O)Nc1ccccc1F (stereo not shown)
10
O=C1NCC(c2ccc(Cl)c(F)c2)C1C(=O)Nc1cccc(F)c1F (stereo not shown)
0

Incoming: What value of measured Plant response rating, Barnyardgrass is listed for CC1(C)NC(=O)C(C(=O)Nc2ccccc2F)C1c1ccc(F)c(F)c1 (stereo not shown) ?
Outgoing: 0

====

# System: giant foxtail
# experimentNotes: Test A pre-/postemergence herbicide test
# Type: in vivo, Setaria faberii
# conditionContext: Preemergence, 125 g ai/ha; visual rating on 0 to 100 scale (0 no effect, 100 complete control)
Documented Foxtail, Giant plant response rating across a set of molecules

O=C1NCC(c2ccccc2Cl)C1C(=O)Nc1ccccc1F (racemic) [Compound 88]
0
O=C1NCC(c2ccc(Cl)c(Cl)c2)C1C(=O)Nc1ccccc1OC(F)(F)F (racemic) [Compound 32]
70
CC1(C(=O)Nc2cccc(F)c2F)C(=O)NCC1c1ccc(F)c(Cl)c1 (centres unmarked) [Compound 61]
0
O=C1NCC(c2ccc(Cl)nc2)C1C(=O)Nc1ccccc1F (centres unmarked) [Compound 41]
10
O=C1NCC(c2cc(F)c(F)cc2F)C1C(=O)Nc1cccc(F)c1F (centres unmarked) [Compound 50]
90

Incoming: What value of measured Foxtail, Giant plant response rating is listed for Cc1cccc(C2CN(C(=O)OC(C)(C)C)C(=O)C2C(=O)Nc2ccccc2F)c1 (centres unmarked) [Compound 37] ?
Outgoing: 0

Incoming: What value of measured Foxtail, Giant plant response rating is listed for CC1NC(=O)C(C(=O)Nc2ccccc2C(F)(F)F)C1c1ccc(F)c(F)c1 (mixture of isomers) [Compound 9] ?
Outgoing: 70

Incoming: What value of measured Foxtail, Giant plant response rating is listed for O=C1NCC(c2ccccc2F)C1C(=O)Nc1ccccc1F (racemic) [Compound 85] ?
Outgoing: 0
